Reference source: the Kinase Knowledgebase extract (Sharma et al. 2016)

// PIK3CD (Human) IC50 records

Lab entry: PIK3CD (Human) assay, compound COc1c(C(C)Nc2ncnc3[nH]cnc23)cc(Cl)c(C)c1-c1ccc(C(=O)N2CCC(O)CC2)c(F)c1 (stereo not given) , IC50 = < 50 nM

Lab entry: PIK3CD (Human) assay, compound COc1c(C(C)Nc2ncnc3[nH]cnc23)cc(Cl)c(F)c1C1=CCN(S(C)(=O)=O)CC1 (stereo not given) , IC50 = < 50 nM

Lab entry: PIK3CD (Human) assay, compound COc1c(-c2ccnn2C)cc(Cl)cc1C(C)Nc1ncnc2[nH]cnc12 (stereo not given) , IC50 = 50 to 100 nM

Lab entry: PIK3CD (Human) assay, compound COc1c(C(C)Nc2ncnc3[nH]cnc23)cc(Cl)c(C)c1-c1ccc(C(=O)N2CCOCC2)c(F)c1 (stereo not given) , IC50 = < 50 nM

Lab entry: PIK3CD (Human) assay, compound CNC(=O)c1ccc(-c2c(C)c(Cl)cc(C(C)Nc3ncnc4[nH]cnc34)c2OC)cc1F (stereo not given) , IC50 = < 50 nM

Lab entry: PIK3CD (Human) assay, compound COc1c(C(C)Nc2ncnc3[nH]cnc23)cc(Cl)c(C)c1-c1cnn(C2(CC#N)CC(C#N)C2)c1 (stereo not given) , IC50 = < 50 nM

Lab entry: PIK3CD (Human) assay, compound COc1c(-c2ccncc2)cc(Cl)cc1C(C)Nc1ncnc2[nH]cnc12 (stereo not given) , IC50 = 50 to 100 nM
